Assay: JC-1 mitochondrial signal, unstimulated HepG2 cells – cell-based, JC-1 fluorescence, 24 h, 100 nL compound, profiling panel (AID 1167); note: test concentration not given here
Settings: HepG2 mitochondrial potential, higher = more signal
Give measured z-score for each item. Keep answers brief.
Give bare numbers.

>>> result_value("CCCC=C(CCC)[C@@H](NC(=O)OCC(C)C)c1ccc(C(=O)OC)cc1")
-0.345

Quick batch: z-score for everything below.
1. O=C1O[C@H](c2ccccc2)[C@H](c2ccccc2)N2[C@H]1[C@@H](C(=O)N1CCN(c3ncccn3)CC1)[C@]1(C(=O)Nc3ccc(C#CCCO)cc31)[C@H]2c1ccc(O)cc1
2. COC(=O)[C@@]1(Cc2ccccc2)N=C(c2ccc(OCCCO)cc2)O[C@H]1c1ccccc1CN=[N+]=[N-]
3. C=C(CCCC)/C(=C/C[C@H](OC(C)=O)c1cccc(OCCO)c1)c1cnc2ccccc2c1
4. CC(C)(C)N1CC=CC23O[C@@H]4C=CCCOC(=O)C4[C@H]2C(=O)N(CCCCCCO)[C@@H]3C1=O (stereo partly specified)

Out:
[-0.19, -2.16, 1.86, 0.212]

List z-score for every entry below, keeping the order given.
1. CN(C)c1ccc(C(O)C2C=CC3C(=O)N(Cc4ccccc4)C(=O)C3N2n2cnnc2)cc1 (stereo unspecified)
2. CCCCC(=C=CC[C@H](O)c1ccc(CO)o1)CCO
3. [N-]=[N+]=Nc1ccccc1[C@@H]1OC(c2ccc(OCCCO)cc2)=N[C@]1(Cc1ccccc1)C(=O)NCCN1CCOCC1
4. Cc1ccc(S[C@]2(C(=O)NC3CC3)CC(=O)N(C(C)C)[C@@H]2c2ccc(CO)cc2I)cc1
5. Cc1ccccc1C(O)C1C=CC2C(=O)N(c3ccccc3)C(=O)C2N1Nc1ccccc1 (stereo unspecified)

Out:
1. 0.0219
2. -0.787
3. 0.153
4. 2.11
5. -0.978

Report z-score for each item below.
1. C=CCC(OC(C)=O)[C@@H]1[C@@H](N(Cc2cccc3ccccc23)C(=O)c2ccc(-c3ccccc3)cc2)c2cc(OCCCO)ccc2N1C(=O)Cc1ccc2ccccc2c1 (stereo partly specified)
2. COc1ccc([Si](C)(C)[C@@H]2[C@@H](CC(=O)N(CCO)Cc3ccccc3)O[C@]3(C(=O)N(Cc4ccc(N5C(=O)c6cccc7cccc5c67)cc4)c4ccccc43)[C@H]2C)cc1
3. CC(C)C(O)C1C=CC2C(=O)NC(=O)C2N1Nc1ccccn1 (stereo unspecified)
4. O=C1[C@@H]2[C@@H](CC(COc3ccccc3)=C([C@H](O)CCc3ccccc3)[C@@H]2CO)C(=O)N1Cc1ccccc1
5. [N-]=[N+]=NCc1ccccc1[C@@H]1OC(c2ccc(OCCCO)cc2)=N[C@]1(Cc1ccccc1N=[N+]=[N-])C(=O)NCC(O)CO (stereo partly specified)
6. COc1ccccc1CN1C(=O)c2ccccc2[C@](Cc2ccccc2I)(C(=O)NCC(C)C)[C@@H]1c1ccc(CO)cc1

Out:
[1.9, -0.038, 0.119, 0.325, -0.686, 1.41]
